- System: TNFα release by human PBMCs
- EXPERIMENTAL_PROTOCOL: Cytokine release by LPS-stimulated human PBMCs (TNFα ELISA)
- Assay type: cell-based
- CONDITION_DETAILS: PBMC, LPS 1 μg/mL, 24 hr
- Description: Human peripheral blood mononuclear cells (PBMCs) are isolated from “buffy coats” prepared from the blood of healthy volunteers, isolated essentially according to method of Bøyum (1984). In brief, buffy coat is diluted 1:1 with 1×PBS (Gibco) and 30 mL is carefully put on top of 20 mL Lymphoprep™ (Lucron Bioproducts) in 50 mL Falcon tubes. […]
pEC50: −log10 of the molar value.
Parameter: pEC50. Scope: all listed entries.

{"COMPOUND_SMILES": "CN1CCN(c2ccc(Nc3ncc(-c4cscn4)n4ccnc34)cc2)CC1", "pEC50": "6.30 to 7.00"}
{"COMPOUND_SMILES": "CN1CCN(c2ccc(Nc3ncc(-c4cn[nH]c4)n4ccnc34)cc2)CC1", "pEC50": "< 6.00"}
{"COMPOUND_SMILES": "Cn1nnc(-c2ccc(Nc3ncc(-c4cn[nH]c4)n4ccnc34)cc2)n1", "pEC50": "< 6.00"}
{"COMPOUND_SMILES": "CCN(CC)CCNC(=O)c1ccc(Nc2ncc(-c3cn[nH]c3)n3ccnc23)cc1F", "pEC50": "< 6.00"}
{"COMPOUND_SMILES": "c1cn2c(-c3c[nH]cn3)cnc(Nc3ccc(N4CCOCC4)cc3)c2n1", "pEC50": "< 6.00"}

---

- Tested on: TNFα release by human PBMCs
- EXPERIMENTAL_PROTOCOL: Cytokine release by LPS-stimulated human PBMCs (TNFα ELISA)
- Assay type: cell-based
- CONDITION_DETAILS: PBMC, LPS 1 μg/mL, 24 hr

{"COMPOUND": "NC(=O)c1ccc(-c2cnc(Nc3ccc(N4CCCCC4)cc3)c3nccn23)cc1", "EC50": "1 to 100 nM"}
{"COMPOUND": "c1cn2c(-c3cn[nH]c3)cnc(Nc3ccc(N4CCOCC4)cc3)c2n1", "EC50": "> 1000 nM"}
{"COMPOUND": "CN(C)C(CNC(=O)c1ccc(Nc2ncc(-c3cc[nH]c(=O)c3)n3ccnc23)cc1)c1cccnc1 (centres unmarked)", "EC50": "> 1000 nM"}
{"COMPOUND": "CC(C)N1CCN(c2ccc(Nc3ncc(-c4ccc5c(c4)CNC5=O)n4ccnc34)cn2)CC1", "EC50": "> 1000 nM"}
{"COMPOUND": "CC(C)N1CCN(c2ccc(Nc3ncc(-c4ccc5c(c4)CNC5=O)n4ccnc34)cc2)CC1", "EC50": "> 1000 nM"}
{"COMPOUND": "CCN(CC)CCNC(=O)c1ccc(Nc2ncc(-c3cn[nH]c3)n3ccnc23)cc1", "EC50": "> 1000 nM"}
{"COMPOUND": "NC(=O)c1ccc(-c2cnc(Nc3ccc(N4CCN(CCO)CC4)cc3)c3nccn23)cc1", "EC50": "> 1000 nM"}
{"COMPOUND": "c1cn2c(-c3cn[nH]c3C3CC3)cnc(Nc3ccc(N4CCOCC4)cc3)c2n1", "EC50": "> 1000 nM"}
{"COMPOUND": "CN1CCN(c2ccc(Nc3ncc(-c4ccc(C(N)=O)cn4)n4ccnc34)cc2)CC1", "EC50": "> 1000 nM"}
{"COMPOUND": "CC(C)N1CCN(c2ccc(Nc3ncc(-c4cc(F)c(C(N)=O)c(F)c4)n4ccnc34)cc2)CC1", "EC50": "> 1000 nM"}
{"COMPOUND": "Cc1[nH]ncc1-c1cnc(Nc2ccc(N3CCOCC3)cc2)c2nccn12", "EC50": "> 1000 nM"}
{"COMPOUND": "CCN(CC)CCNC(=O)c1ccc(Nc2ncc(-c3cn[nH]c3)n3ccnc23)c(F)c1", "EC50": "> 1000 nM"}
{"COMPOUND": "O=C1NCc2cc(-c3cnc(Nc4ccc(N5CCOCC5)cc4)c4nccn34)sc21", "EC50": "> 1000 nM"}
{"COMPOUND": "CN1CCN(c2ccc(Nc3ncc(-c4cc[nH]c(=O)c4)n4ccnc34)cc2)CC1", "EC50": "> 1000 nM"}
{"COMPOUND": "NC(=O)c1cnc(-c2cnc(Nc3ccc(N4CCOCC4)cc3)c3nccn23)s1", "EC50": "101 to 500 nM"}
{"COMPOUND": "O=C(NCc1cccnc1)c1ccc(Nc2ncc(-c3cn[nH]c3)n3ccnc23)cc1", "EC50": "501 to 1000 nM"}
{"COMPOUND": "O=C(NCCN1CCOCC1)c1ccc(Nc2ncc(-c3cn[nH]c3)n3ccnc23)cc1", "EC50": "> 1000 nM"}
